Experiment: Anticancer activity against human NCI60 cells
Assay type: functional
Conditions: read-out: LC50 (the source's name)
# Yes = CC50 below 6 µM (exclusive); No = CC50 at/above 6 µM

Recorded results for 6 molecules are shown here.
O=C(c1ccccc1)c1c(C(F)(F)F)[n+]([O-])c2cc(C(F)(F)F)ccc2[n+]1[O-] ... No
O=C(c1cccs1)c1c(C(F)(F)F)[n+]([O-])c2ccc(Cl)cc2[n+]1[O-] ... Yes
O=C(c1ccco1)c1c(C(F)(F)F)[n+]([O-])c2ccc(Cl)cc2[n+]1[O-] ... No
COc1ccc2c(c1)[n+]([O-])c(C(=O)c1cccs1)c(C(F)(F)F)[n+]2[O-] ... No
O=C(c1ccc2ccccc2c1)c1c(C(F)(F)F)[n+]([O-])c2cc(F)c(F)cc2[n+]1[O-] ... No
O=C(c1ccc2ccccc2c1)c1c(C(F)(F)F)[n+]([O-])c2ccc(Cl)cc2[n+]1[O-] ... Yes

Note: attention shifts to another entry.
Qu. Identify whether the molecule O=C(c1ccco1)c1c(C(F)(F)F)nc2cc(C(F)(F)F)ccc2[n+]1[O-] records CC50 below 6 µM.
Ans. No

* * *

Assay: Anticancer activity against human NCI60 cells
Type: functional
# criterion met = TGI below 3 µM (exclusive); criterion not met = TGI at/above 3 µM

O=C(c1ccc2ccccc2c1)c1c(C(F)(F)F)[n+]([O-])c2cc(Cl)c(Cl)cc2[n+]1[O-] ... criterion not met
O=C(c1ccccc1)c1c(C(F)(F)F)[n+]([O-])c2ccc(C(F)(F)F)cc2[n+]1[O-] ... criterion met
O=C(c1ccco1)c1c(C(F)(F)F)nc2ccc(C(F)(F)F)cc2[n+]1[O-] ... criterion not met
O=C(c1cccs1)c1c(C(F)(F)F)[n+]([O-])c2ccccc2[n+]1[O-] ... criterion not met
O=C(c1ccc2ccccc2c1)c1c(C(F)(F)F)[n+]([O-])c2ccc(Cl)cc2[n+]1[O-] ... criterion met

Note: attention shifts to another entry.
Qu. Identify whether the compound O=C(c1ccco1)c1c(C(F)(F)F)nc2cc(C(F)(F)F)ccc2[n+]1[O-] records TGI below 3 µM.
Ans. criterion not met

* * *

Assay: Anticancer activity against breast cancer cells
Assay type: functional
Settings: Homo sapiens, Cancer cell lines
propertyName: GI50 (nM)
Give just the numeric value; nM need not be written.

// known answers, use as guide
O=C(c1ccc2ccccc2c1)c1c(C(F)(F)F)[n+]([O-])c2cc(F)c(F)cc2[n+]1[O-] ... 2360
O=C(c1cccs1)c1c(C(F)(F)F)[n+]([O-])c2cc(Cl)c(Cl)cc2[n+]1[O-] ... 790
O=C(c1ccco1)c1nc2cc(C(F)(F)F)ccc2[n+]([O-])c1C(F)(F)F ... 32000
O=C(c1ccco1)c1c(C(F)(F)F)[n+]([O-])c2cc(F)c(F)cc2[n+]1[O-] ... 200
Cc1ccc2c(c1)[n+]([O-])c(C(=O)c1cccs1)c(C(F)(F)F)[n+]2[O-] ... 760

Qu. Which GI50 reading was recorded for the compound O=C(c1ccc2ccccc2c1)c1c(C(F)(F)F)[n+]([O-])c2ccc(Cl)cc2[n+]1[O-] ?
Ans. 1150

* * *

Assay: Anticancer activity against breast cancer cells
Type: functional
Conditions: Homo sapiens, Cancer cell lines
Note to self: class labels come from recorded GI50, ranges listed here: lower bin = under 600 nM, middle bin = from 600 nM up to 3000 nM, upper bin = 3000 nM and over

Recorded results for 4 compounds are shown here.
O=C(c1cccs1)c1c(C(F)(F)F)[n+]([O-])c2ccc(Cl)cc2[n+]1[O-] ... lower bin
COc1ccc2c(c1)[n+]([O-])c(C(=O)c1cccs1)c(C(F)(F)F)[n+]2[O-] ... upper bin
O=C(c1ccco1)c1c(C(F)(F)F)[n+]([O-])c2ccc(C(F)(F)F)cc2[n+]1[O-] ... lower bin
O=C(c1ccco1)c1nc2cc(C(F)(F)F)ccc2nc1C(F)(F)F ... upper bin

Qu. Which category fits this record: O=C(c1ccco1)c1c(C(F)(F)F)[n+]([O-])c2cc(C(F)(F)F)ccc2[n+]1[O-]
Ans. lower bin

Qu. Which category fits this record: O=C(c1ccco1)c1c(C(F)(F)F)[n+]([O-])c2ccccc2[n+]1[O-]
Ans. middle bin

Qu. Which category fits this record: O=C(c1ccc2ccccc2c1)c1c(C(F)(F)F)[n+]([O-])c2ccc(C(F)(F)F)cc2[n+]1[O-]
Ans. middle bin

Qu. Which category fits this record: O=C(c1cccs1)c1c(C(F)(F)F)[n+]([O-])c2ccc(F)cc2[n+]1[O-]
Ans. middle bin

Qu. Which category fits this record: COc1ccc2c(c1)[n+]([O-])c(C(=O)c1ccco1)c(C(F)(F)F)[n+]2[O-]
Ans. middle bin

* * *

Assay: Anticancer activity against renal cancer cells
Assay type: functional
Conditions: Homo sapiens, Cancer cell lines
Note to self: class labels come from recorded GI50, ranges listed here: category 1 = under 1000 nM, category 2 = from 1000 nM up to 2000 nM, category 3 = 2000 nM and over

Qu. Which category fits this record: O=C(c1ccco1)c1c(C(F)(F)F)[n+]([O-])c2ccccc2[n+]1[O-]
Ans. category 1

* * *

Reported log10(GI50) values are given for each entry in this list.
Experiment: Anticancer activity against melanoma cells
Assay type: functional
Conditions: Homo sapiens, Melanoma cell
Note the log scale: values are log10 of GI50 expressed in µM.

Qu. Which log10(GI50) reading was recorded for the compound O=C(c1ccc2ccccc2c1)c1c(C(F)(F)F)[n+]([O-])c2cc(F)c(F)cc2[n+]1[O-] ?
Ans. 0.40

Qu. Which log10(GI50) reading was recorded for the compound Cc1ccc2c(c1)[n+]([O-])c(C(=O)c1cccs1)c(C(F)(F)F)[n+]2[O-] ?
Ans. -0.05

Qu. Which log10(GI50) reading was recorded for the compound O=C(c1ccco1)c1c(C(F)(F)F)[n+]([O-])c2cc(Cl)c(Cl)cc2[n+]1[O-] ?
Ans. 0.20

Qu. Which log10(GI50) reading was recorded for the compound O=C(c1cccs1)c1c(C(F)(F)F)[n+]([O-])c2ccc(F)cc2[n+]1[O-] ?
Ans. 0.18

Qu. Which log10(GI50) reading was recorded for the compound O=C(c1ccco1)c1c(C(F)(F)F)[n+]([O-])c2ccc(Cl)cc2[n+]1[O-] ?
Ans. -0.31

Qu. Which log10(GI50) reading was recorded for the compound Cc1ccc2c(c1)[n+]([O-])c(C(=O)c1ccco1)c(C(F)(F)F)[n+]2[O-] ?
Ans. -0.06

Qu. Which log10(GI50) reading was recorded for the compound O=C(c1ccco1)c1nc2cc(C(F)(F)F)ccc2[n+]([O-])c1C(F)(F)F ?
Ans. 1.63

Qu. Which log10(GI50) reading was recorded for the compound Cc1cc2c(cc1C)[n+]([O-])c(C(F)(F)F)c(C(=O)c1cccs1)[n+]2[O-] ?
Ans. 0.60

Qu. Which log10(GI50) reading was recorded for the compound O=C(c1ccco1)c1c(C(F)(F)F)[n+]([O-])c2ccc(F)cc2[n+]1[O-] ?
Ans. 0.19

Qu. Which log10(GI50) reading was recorded for the compound O=C(c1ccc2ccccc2c1)c1c(C(F)(F)F)[n+]([O-])c2ccc(C(F)(F)F)cc2[n+]1[O-] ?
Ans. -0.01

Qu. Which log10(GI50) reading was recorded for the compound COc1ccc2c(c1)[n+]([O-])c(C(=O)c1cccs1)c(C(F)(F)F)[n+]2[O-] ?
Ans. 0.77

Qu. Which log10(GI50) reading was recorded for the compound O=C(c1ccccc1)c1c(C(F)(F)F)[n+]([O-])c2ccc(F)cc2[n+]1[O-] ?
Ans. -0.02

* * *

Test: Anticancer activity against human NCI60 cells
Format: functional
Reported TGI values are given for each entry in this list.
Give just the numeric value; µM need not be written.

O=C(c1ccco1)c1c(C(F)(F)F)[n+]([O-])c2cc(C(F)(F)F)ccc2[n+]1[O-] ... 1.2
O=C(c1ccco1)c1nc2cc(C(F)(F)F)ccc2[n+]([O-])c1C(F)(F)F ... 97.7
Cc1ccc2c(c1)[n+]([O-])c(C(=O)c1ccco1)c(C(F)(F)F)[n+]2[O-] ... 3.47
O=C(c1ccco1)c1c(C(F)(F)F)[n+]([O-])c2ccc(C(F)(F)F)cc2[n+]1[O-] ... 1.48
O=C(c1ccco1)c1nc2ccc(C(F)(F)F)cc2[n+]([O-])c1C(F)(F)F ... 95.5

Qu. Which TGI reading was recorded for the molecule O=C(c1cccs1)c1c(C(F)(F)F)[n+]([O-])c2ccc(F)cc2[n+]1[O-] ?
Ans. 2.88

Qu. Which TGI reading was recorded for the molecule O=C(c1ccco1)c1nc2cc(C(F)(F)F)ccc2nc1C(F)(F)F ?
Ans. 97.7

Qu. Which TGI reading was recorded for the molecule O=C(c1ccco1)c1c(C(F)(F)F)[n+]([O-])c2ccccc2[n+]1[O-] ?
Ans. 5.13

Qu. Which TGI reading was recorded for the molecule O=C(c1ccco1)c1c(C(F)(F)F)[n+]([O-])c2cc(F)c(F)cc2[n+]1[O-] ?
Ans. 1.48

Qu. Which TGI reading was recorded for the molecule O=C(c1cccs1)c1c(C(F)(F)F)[n+]([O-])c2cc(F)c(F)cc2[n+]1[O-] ?
Ans. 1.62
